experiment: Selectivity index, ratio of Ki for human alpha3beta4 nAChR in […] cell membrane to Ki for alpha4beta2 nAChR in rat cerebral cortex membrane; type: cell-based
Please go through the items and note down their Ratio Ki.
Numbers only.

Example entries and their recorded answers appear below.
# structure smiles string, Ratio Ki
data = [
    ("O=C(Nc1ccc2c(c1)OCO2)c1cncc(N2CC3CC(C2)N3)c1", 1070),
    ("COc1ccc(NC(=O)c2cncc(N3CC4CC(C3)N4)c2)cc1OC", 623),
    ("O=C(Nc1ccccc1F)c1cncc(N2CC3CC(C2)N3)c1", 324),
    ("O=C(Nc1cccc(Cl)c1)c1cncc(N2CC3CC(C2)N3)c1", 1400),
]

Consider now this further molecule.
Query block: I'd like to know its Ratio Ki. The molecule in question is O=C(c1cncc(N2CC3CC(C2)N3)c1)N1CCCc2ccccc21
Result block: 316

###

test: Selectivity index, ratio of Ki for human alpha3beta4 nAChR in […] cell membrane to Ki for alpha4beta2 nAChR in rat cerebral cortex membrane; assay type: cell-based
Please go through the items and note down their Ratio Ki.
Numbers only.

# structure smiles string, parameter, recorded value
data = [
    ("O=C(Nc1cccc(F)c1)c1cncc(N2CC3CC(C2)N3)c1", "Ratio Ki", 636),
]

Go through the items and report each one's Ratio Ki.
1. O=C(c1cncc(N2CC3CC(C2)N3)c1)N1CCc2ccccc2C1
2. O=C(Nc1ccc(Cl)cc1)c1cncc(N2CC3CC(C2)N3)c1
3. CCc1cccc(NC(=O)c2cncc(N3CC4CC(C3)N4)c2)c1

Result block:
1. 677
2. 304
3. 235

###

biological target: Neuronal acetylcholine receptor; alpha3/beta4 (Homo sapiens, UniProt P30926+P32297); assay: Displacement of [3H]epibatidine from human alpha3beta4 nAChR transfected in […] cell membrane
Sequence (P30926 whole entry): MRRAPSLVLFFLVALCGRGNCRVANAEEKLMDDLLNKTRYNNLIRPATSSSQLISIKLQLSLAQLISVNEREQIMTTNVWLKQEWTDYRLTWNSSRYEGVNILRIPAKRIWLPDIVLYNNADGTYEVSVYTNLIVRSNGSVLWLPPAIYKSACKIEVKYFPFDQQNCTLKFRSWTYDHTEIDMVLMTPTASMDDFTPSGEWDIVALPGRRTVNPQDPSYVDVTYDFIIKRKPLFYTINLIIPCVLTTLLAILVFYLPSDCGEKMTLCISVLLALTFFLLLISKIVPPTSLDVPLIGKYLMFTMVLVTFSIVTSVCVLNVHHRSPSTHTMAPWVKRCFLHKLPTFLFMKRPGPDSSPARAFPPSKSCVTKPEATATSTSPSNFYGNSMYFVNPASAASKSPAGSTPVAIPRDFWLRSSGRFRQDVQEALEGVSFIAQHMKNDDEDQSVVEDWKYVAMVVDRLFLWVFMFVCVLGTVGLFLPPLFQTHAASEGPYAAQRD
Sequence (P32297 whole entry): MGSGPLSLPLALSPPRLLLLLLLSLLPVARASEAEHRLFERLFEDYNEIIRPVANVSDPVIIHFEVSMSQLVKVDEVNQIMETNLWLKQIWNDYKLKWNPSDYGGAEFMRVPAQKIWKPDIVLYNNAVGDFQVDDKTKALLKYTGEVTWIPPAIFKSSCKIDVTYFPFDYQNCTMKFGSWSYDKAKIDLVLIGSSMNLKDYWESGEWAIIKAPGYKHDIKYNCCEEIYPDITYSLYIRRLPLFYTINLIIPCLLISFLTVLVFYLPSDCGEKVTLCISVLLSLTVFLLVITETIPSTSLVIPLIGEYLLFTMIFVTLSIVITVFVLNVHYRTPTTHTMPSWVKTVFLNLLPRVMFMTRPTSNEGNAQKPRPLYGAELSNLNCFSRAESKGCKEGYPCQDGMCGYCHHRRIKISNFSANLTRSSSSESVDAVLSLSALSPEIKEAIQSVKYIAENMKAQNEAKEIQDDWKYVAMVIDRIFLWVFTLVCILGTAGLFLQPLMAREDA
parameter: pKi
One number for each entry, as −log10 of the molar value.

Example entries and their recorded answers appear below.
# structure smiles string, pKi
data = [
    ("O=C(c1cncc(N2CC3CC(C2)N3)c1)N1CCCc2ccccc21", 7.21),
    ("COc1cccc(NC(=O)c2cncc(N3CC4CC(C3)N4)c2)c1", 6.58),
    ("O=C(Nc1ccccc1F)c1cncc(N2CC3CC(C2)N3)c1", 6.99),
    ("CCc1cccc(NC(=O)c2cncc(N3CC4CC(C3)N4)c2)c1", 6.51),
    ("O=C(c1cncc(N2CC3CC(C2)N3)c1)N1CCc2ccccc2C1", 7.68),
    ("O=C(Nc1ccc(I)cc1)c1cncc(N2CC3CC(C2)N3)c1", 6.99),
]

Go through the items and report each one's pKi.
1. O=C(Nc1ccc(F)cc1F)c1cncc(N2CC3CC(C2)N3)c1
2. O=C(Nc1ccccc1)c1cncc(N2CC3CC(C2)N3)c1
3. O=C(Nc1cccc(Cl)c1)c1cncc(N2CC3CC(C2)N3)c1
4. COc1cc(NC(=O)c2cncc(N3CC4CC(C3)N4)c2)cc(OC)c1

Result block:
1. 7.30
2. 6.72
3. 7.23
4. 5.70

###

target: Neuronal acetylcholine receptor; alpha3/beta4 (Homo sapiens, UniProt P30926+P32297); experiment: Displacement of [3H]epibatidine from human alpha3beta4 nAChR transfected in […] cell membrane
Please go through the items and note down their pKi.
Numbers only, as −log10 of the molar value.

# structure smiles string, pKi
rows = [
    ("O=C(Nc1cccc(F)c1)c1cncc(N2CC3CC(C2)N3)c1", 7.55),
]

Go through the items and report each one's pKi.
1. O=C(Nc1ccc(F)cc1)c1cncc(N2CC3CC(C2)N3)c1
2. O=C(Nc1ccc(Cl)cc1)c1cncc(N2CC3CC(C2)N3)c1
3. O=C(NCc1ccccc1)c1cncc(N2CC3CC(C2)N3)c1
4. COc1ccc(NC(=O)c2cncc(N3CC4CC(C3)N4)c2)cc1OC
5. O=C(Nc1ccc2c(c1)OCO2)c1cncc(N2CC3CC(C2)N3)c1

Result block:
7.09
6.91
5.80
6.29
6.95
